The values you see were collected from ChEMBL document CHEMBL3784914.

# Method Description: Anti-neuroinflammatory activity in LPS-activated mouse BV2 cells assessed as inhibition of NO production after 24 hrs by Griess assay
# Type: functional, cell-based
# Assay Conditions: BV-2, 24 h
pIC50: −log10 of the molar value.
Readout: pIC50

Input line: Field request: pIC50 | item: COc1cc([C@@H]2OC[C@@H]3[C@H]2CO[C@H]3c2ccc(O)c(OC)c2)ccc1O [(+)-PINORESINOL]
Output line: 4.47

a: COc1cc([C@H]2OC[C@H]3[C@@H]2CO[C@@H]3c2cc(OC)c(O)c(OC)c2)ccc1O
b: CNC(=N)NCCC[C@H](N)C(=O)O
c: COc1cc(/C=C/C(=O)OCCCc2cc(OC)c3c(c2)[C@@H](CO)[C@H](c2cc(OC)c(O[C@@H](CO)[C@H](O)c4ccc(O)c(OC)c4)c(OC)c2)O3)ccc1O
Input line: Ordering: ascending pIC50. Put the labels in the requested order and list them out.
Output line: a, b, c

----------
Readings of viability at 24 h, 20 µM for the listed compounds
# Method Description: Cytotoxicity in rat C6 cells assessed as cell viability at 20 uM after 24 hrs by MTT assay
# Format: cell-based
# Assay Conditions: read-out: Activity
Unit % implied. Number only.

Input line: Field request: viability at 24 h, 20 µM | item: "COc1cc([C@H]2OC[C@H]3[C@@H]2CO[C@@H]3c2cc(OC)c(O)c(OC)c2)ccc1O"
Output line: 103

Input line: // query: "COc1cc(C[C@@H]2CO[C@H](c3ccc(O)c(OC)c3)[C@]2(O)CO)ccc1O"
Output line: 106

Alright, here's another compound for you.
Input line: Field request: viability at 24 h, 20 µM | item: "CCCCC/C=C/C(=O)CCc1ccc(O)c(OC)c1"
Output line: 105
